Measured Ki values are reported for all entries that follow.
Molecular target: D(2) dopamine receptor (Homo sapiens)
Sequence (P14416 whole entry): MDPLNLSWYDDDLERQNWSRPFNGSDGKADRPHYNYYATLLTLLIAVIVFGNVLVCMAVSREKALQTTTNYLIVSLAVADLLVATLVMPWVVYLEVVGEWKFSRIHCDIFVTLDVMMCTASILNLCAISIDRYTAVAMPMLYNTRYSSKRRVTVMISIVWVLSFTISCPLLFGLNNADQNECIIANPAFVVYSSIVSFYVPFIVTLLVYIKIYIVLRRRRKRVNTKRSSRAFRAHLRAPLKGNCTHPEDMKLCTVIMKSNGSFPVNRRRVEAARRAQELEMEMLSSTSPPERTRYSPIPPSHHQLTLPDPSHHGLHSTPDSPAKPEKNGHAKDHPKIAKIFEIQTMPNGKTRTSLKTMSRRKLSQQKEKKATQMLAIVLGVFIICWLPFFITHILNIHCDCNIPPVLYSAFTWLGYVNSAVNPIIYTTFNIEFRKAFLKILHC
Assay: Displacement of [3H]-N-methylspiperone from human dopmaine D2L receptor expressed in CHO cell membrane assessed as inhibition constant by competition binding assay
Type: cell membranes
Quick note: give the figure in µM, leave out the unit.

Past entries and their recorded results:
# COMPOUND, Ki / µM
records = [
    ("COCCOCCOc1ccc(NC(=O)NCCCN2CCN(c3ccccc3OC)CC2)c(-c2ccccc2)c1", 0.13),
    ("COc1ccc(NC(=O)NCCCN2CCN(c3ccccc3OC)CC2)cc1-c1ccc(F)cc1", 0.089),
    ("COc1ccccc1N1CCN(CCCNC(=O)NCc2ccccc2-c2cccc(F)c2)CC1", 0.086),
    ("COc1ccccc1N1CCN(CCCNC(=O)Nc2ccccc2-c2ccc(-c3ccccc3)cc2)CC1", 0.052),
    ("COc1ccccc1N1CCN(CCCNC(=O)Nc2ccc(F)cc2-c2ccccc2)CC1", 0.14),
]

query: Would you kindly share the measured Ki for `COc1ccccc1N1CCN(CCCNC(=O)NCc2ccccc2-c2ccccc2)CC1` ?
result: 0.19

* * *

Target: UniProt P14416
Experiment: Displacement of [3H]-N-methylspiperone from human dopmaine D2S receptor expressed in CHO cell membrane assessed as inhibition constant by competition binding assay
Type: cell membranes
Quick rule for you: Ki under 80 nM gets yes, anything else gets no.

Check out these entries, answers already filled in.
# COMPOUND, TEST_TARGET, CAT
rows = [
    ("COc1ccccc1N1CCN(CCCNC(=O)NCc2ccccc2-c2ccc(C)cc2)CC1", "UniProt P14416", "yes"),
    ("COc1ccccc1N1CCN(CCCNC(=O)Nc2ccccc2-c2ccccc2)CC1", "UniProt P14416", "no"),
    ("COc1ccccc1N1CCN(CCCNC(=O)Nc2ccccc2-c2ccc(-c3ccccc3)cc2)CC1", "UniProt P14416", "yes"),
    ("COc1ccccc1N1CCN(CCCNC(=O)Nc2ccccc2-c2ccc(C(C)C)cc2)CC1", "UniProt P14416", "no"),
    ("COc1cccc(-c2ccccc2CNC(=O)NCCCN2CCN(c3ccccc3OC)CC2)c1", "UniProt P14416", "no"),
]

query: Consider the molecule `COc1ccccc1N1CCN(CCCNC(=O)NCc2c(F)cccc2-c2ccccc2)CC1` . Is its Ki strictly less than 80 nM?
result: no

query: # check: Ki < 80 nM for `COc1ccccc1N1CCN(CCCNC(=O)Nc2ccc(-c3ccccc3)cc2)CC1`
result: no

query: Lab log: compare recorded Ki with 80 nM; is it strictly lower for `COCCOCCOc1ccc(NC(=O)NCCCN2CCN(c3ccccc3OC)CC2)c(-c2ccccc2)c1` ?
result: yes

query: Quick check: does `COc1ccccc1N1CCN(CCCNC(=O)NCc2ccc(F)cc2-c2ccccc2)CC1` have Ki under 80 nM?
result: yes

query: Strictly below 80 nM in Ki? `COc1ccccc1N1CCN(CCCNC(=O)Nc2ccc(F)cc2-c2ccccc2)CC1`
result: yes

query: Ki strictly < 80 nM for this molecule? `COc1cccc(-c2ccccc2NC(=O)NCCCN2CCN(c3ccccc3OC)CC2)c1`
result: no

query: Hello, is Ki of the following molecule strictly smaller than 80 nM? `COc1ccccc1N1CCN(CCCNC(=O)Nc2ccccc2-c2cccc(F)c2)CC1`
result: no

query: Decide: Ki of `C#CCOc1ccc(NC(=O)NCCCN2CCN(c3ccccc3OC)CC2)c(-c2ccccc2)c1` strictly below 80 nM?
result: yes

query: Report whether reported Ki is lower than 80 nM (strictly) for `COc1ccc(CNC(=O)NCCCN2CCN(c3ccccc3OC)CC2)c(-c2ccccc2)c1`
result: yes

query: Threshold test, Ki < 80 nM: `COc1ccccc1N1CCN(CCCNC(=O)NCc2ccccc2-c2cccc(F)c2)CC1`
result: yes
